The reported measurements were obtained from patent US10570117B2.

Assay: Solubility in gastric juice or intestinal juice model fluid (precipitation method using DMSO)
Assay type: physicochemical
Details: pH 1.2, simulated gastric fluid, kinetic from dmso stock, 1st fluid for Disintegration Test of Japanese Pharmacopoeia (pH: 1.2), room temperature, read-out: Solubility (μg/mL) 1st fluid
Measurement Type: solubility at 24 h

Reference set (2 entries):
COc1cc(-c2c[nH]c(C3CCC(F)(F)CC3)n2)ccc1OCc1ccc(C(F)(F)F)cn1: > 101 µg/mL
COc1cc(OCc2ccc(C(F)(F)F)nc2)ccc1-c1c(C)nc(-c2ccc(Cl)nc2)n1C: > 98 µg/mL

Lab note: next compound to report on.
Record request: solubility at 24 h value, item COc1cc(OCc2ccc(C(F)(F)F)cn2)ccc1-c1c[nH]c(C2CCC(F)(F)CC2)n1
> 101 µg/mL

----------
Assay: Solubility in gastric juice or intestinal juice model fluid (precipitation method using DMSO)
Type: physicochemical
Conditions: pH 6.8, kinetic from dmso stock, 2nd fluid for Disintegration Test of Japanese Pharmacopoeia (pH: 6.8), room temperature, read-out: Solubility (μg/mL) 2nd fluid
Measurement Type: solubility at 24 h (µg/mL)

Some solved entries appear below for comparison.
COc1cc(OC(C)c2ccc(C(F)(F)F)cn2)ccc1-c1nc(-c2ccc(F)nc2)[nH]c1Cl (stereo not drawn) [Example 207]: 0.4
COc1cc(OCc2ccc(C(F)(F)F)cn2)ccc1-c1c[nH]c(-c2ccc(S(C)(=O)=O)nc2)n1 [Example 38]: 0.9
COc1cc(OCc2ccc(C(F)(F)F)nc2)ccc1-c1[nH]c(-c2ccc(F)nc2)nc1C#N [Example 409]: 1.9
COc1cc(-c2[nH]c(C3CC(F)(F)C3)nc2Cl)ccc1OCc1ccc(C(F)(F)F)nc1 [Example 179]: 2.3

A = COc1cc(-c2c[nH]c(-c3ccc(F)nc3)n2)ccc1OCc1ccc(C(F)(F)F)cn1 [Example 125]
B = COc1cc(OC(C)c2ccc(C(F)(F)F)cn2)ccc1-c1c[nH]c(-c2ccc(F)nc2)n1 (stereo not drawn) [Example 117]
C = COc1cc(OCc2coc(C)n2)ccc1-c1[nH]c(C2CCC(F)(F)CC2)nc1Cl [Example 197]
D = Fc1ccc(-c2ncc(-c3ccc(OCc4ncc(C(F)(F)F)cc4F)cc3OCc3ccccc3)[nH]2)cn1 [Example 398]
Rank ascending by solubility at 24 h. Show the ranking through the labels, in the order asked for.
A, B, C, D

----------
Measurement Type: melting point

COc1cc(OCc2ncccc2C(F)(F)F)ccc1-c1[nH]c(-c2ccc(F)nc2)nc1Br [Example 275]: 144 to 154 °C
COCCOc1cc(OCc2ccc(C(F)(F)F)cn2)ccc1-c1nc(-c2ccc(Cl)nc2)[nH]c1Cl [Example 218]: 170 to 172 °C
COc1cc(-c2[nH]c(C3CCC(F)(F)C3)nc2Cl)ccc1OCc1ncc(C(F)(F)F)cc1F (stereo not drawn) [Example 347]: 142 to 147 °C
COc1cc(OCc2ccc(C(F)(F)F)cn2)ccc1-c1c[nH]c(C2CCC(C)CC2)n1 (stereo not drawn) [Example 65]: 137 to 142 °C
COc1cc(-c2[nH]c(C(C)(C)C)nc2Cl)ccc1OCc1ncc(C(F)(F)F)cc1F [Example 384]: 179 to 184 °C

Recorded melting point of COc1cc(-c2[nH]c(C3CC(F)(F)C3)nc2Br)ccc1OCc1ccc(C(F)(F)F)nc1 [Example 178] , please.
168 to 170 °C

Try this molecule too: COc1cc(-c2[nH]c(-c3ccc(F)nc3)nc2Cl)ccc1OCc1ncc(C(F)(F)F)cc1F [Example 325]
165 to 170 °C

Likewise for COc1cc(OCc2ncc(Br)cc2F)ccc1-c1[nH]c(-c2ccc(Cl)nc2)nc1Br [Example 250] ?
174 to 179 °C

Same lookup for COCCOc1cc(OCc2ccc(C(F)(F)F)cn2)ccc1-c1c[nH]c(-c2ccc(Cl)nc2)n1 [Example 21] , please.
162 to 167 °C

Follow-up entry: COc1cc(OCc2cc(C(F)(F)F)ccn2)ccc1-c1[nH]c(-c2ccc(F)nc2)nc1Cl [Example 173]
185 to 187 °C

Now try COc1cc(OCc2ccc(C(F)(F)F)cn2)ccc1-c1nc(-c2ccc(Cl)nc2)[nH]c1Br [Example 225] .
186 to 188 °C
